- tested_on: UniProtKB B7LL11
- Sequence (B7LL11 entry or part of it): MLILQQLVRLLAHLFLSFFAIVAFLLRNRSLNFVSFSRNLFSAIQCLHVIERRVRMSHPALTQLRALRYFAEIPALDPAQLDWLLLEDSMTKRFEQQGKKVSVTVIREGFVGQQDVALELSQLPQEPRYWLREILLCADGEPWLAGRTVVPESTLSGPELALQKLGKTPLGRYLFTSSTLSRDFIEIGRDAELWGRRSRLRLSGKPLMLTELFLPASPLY
- assay_procedure: Product inhibition of chorismate-pyruvate lyase activity by 4-HBA (IC50)
- reported_conditions: cell lysate supernatant of strain HBA9
measured_quantity: IC50

I have this compound here, O=C(O)c1ccc(O)cc1 [Strain 4-HBA, 4-hydroxybenzoic acid] , and I need its recorded IC50.
79 µM

* * *

- tested_on: chorismate-pyruvate lyase of Providencia sneebia (Providencia sneebia)
- Sequence (K8VZZ4 1-168): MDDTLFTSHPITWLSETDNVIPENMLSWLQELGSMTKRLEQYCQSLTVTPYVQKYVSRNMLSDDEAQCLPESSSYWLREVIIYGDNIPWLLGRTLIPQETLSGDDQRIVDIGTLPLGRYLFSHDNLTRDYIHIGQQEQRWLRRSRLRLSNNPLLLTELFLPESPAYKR
- assay_procedure: Product inhibition of chorismate-pyruvate lyase activity by 4-HBA (IC50)
- reported_conditions: cell lysate supernatant of strain HBA4
measured_quantity: IC50 (µM)
Just the number please, in µM, no unit attached.

I have this compound here, O=C(O)c1ccc(O)cc1 [Strain 4-HBA, 4-hydroxybenzoic acid] , and I need its recorded IC50.
338

* * *

- tested_on: chorismate-pyruvate lyase of Providencia alcalifaciens (Providencia alcalifaciens, UniProt B6XE56)
- Sequence (B6XE56 1-167): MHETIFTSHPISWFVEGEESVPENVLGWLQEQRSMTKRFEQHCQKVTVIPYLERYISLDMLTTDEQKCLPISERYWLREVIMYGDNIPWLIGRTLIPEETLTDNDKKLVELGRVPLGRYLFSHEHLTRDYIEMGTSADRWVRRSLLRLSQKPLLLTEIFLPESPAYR
- assay_procedure: Product inhibition of chorismate-pyruvate lyase activity by 4-HBA (IC50)
- reported_conditions: cell lysate supernatant of strain HBA6
measured_quantity: pIC50
The value called pIC50 is obtained by taking minus log10 of the concentration in mol/L.

I have this compound here, O=C(O)c1ccc(O)cc1 [Strain 4-HBA, 4-hydroxybenzoic acid] , and I need its recorded pIC50.
3.52

* * *

- tested_on: chorismate-pyruvate lyase of Citrobacter koseri (Citrobacter koseri, UniProt A8AN89)
- Sequence (A8AN89 whole entry, looked up): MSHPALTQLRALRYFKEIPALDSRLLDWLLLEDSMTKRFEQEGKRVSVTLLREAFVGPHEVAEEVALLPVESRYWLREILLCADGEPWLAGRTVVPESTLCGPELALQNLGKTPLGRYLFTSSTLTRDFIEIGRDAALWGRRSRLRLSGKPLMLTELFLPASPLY
- assay_procedure: Product inhibition of chorismate-pyruvate lyase activity by 4-HBA (IC50)
- reported_conditions: cell lysate supernatant of strain HBA14
measured_quantity: pIC50
The value called pIC50 is obtained by taking minus log10 of the concentration in mol/L.

I have this compound here, O=C(O)c1ccc(O)cc1 [Strain 4-HBA, 4-hydroxybenzoic acid] , and I need its recorded pIC50.
4.08

* * *

- tested_on: chorismate-pyruvate lyase of Shewanella putrefaciens (Shewanella putrefaciens)
- Sequence (A0ABX8XB71 entry or part of it): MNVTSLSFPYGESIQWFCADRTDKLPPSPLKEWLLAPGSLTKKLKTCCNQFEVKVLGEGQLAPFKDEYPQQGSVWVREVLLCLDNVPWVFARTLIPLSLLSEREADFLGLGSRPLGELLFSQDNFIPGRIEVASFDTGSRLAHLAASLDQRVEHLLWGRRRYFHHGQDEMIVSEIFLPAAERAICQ
- assay_procedure: Product inhibition of chorismate-pyruvate lyase activity by 4-HBA (IC50)
- reported_conditions: cell lysate supernatant of strain HBA20
measured_quantity: pIC50
The value called pIC50 is obtained by taking minus log10 of the concentration in mol/L.

I have this molecule here, O=C(O)c1ccc(O)cc1 [Strain 4-HBA, 4-hydroxybenzoic acid] , and I need its recorded pIC50.
3.89

* * *

- tested_on: chorismate-pyruvate lyase of Pseudomonas putida (Pseudomonas putida)
- Sequence (Q88C66 whole entry): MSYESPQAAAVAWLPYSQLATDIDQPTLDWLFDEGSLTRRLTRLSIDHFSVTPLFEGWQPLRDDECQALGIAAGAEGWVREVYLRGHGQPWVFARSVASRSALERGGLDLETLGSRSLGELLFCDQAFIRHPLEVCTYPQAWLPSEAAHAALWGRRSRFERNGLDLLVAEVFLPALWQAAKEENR
- assay_procedure: Product inhibition of chorismate-pyruvate lyase activity by 4-HBA (IC50)
- reported_conditions: cell lysate supernatant of strain HBA17
measured_quantity: pIC50
The value called pIC50 is obtained by taking minus log10 of the concentration in mol/L.

I have this molecule here, O=C(O)c1ccc(O)cc1 [Strain 4-HBA, 4-hydroxybenzoic acid] , and I need its recorded pIC50.
4.17
